Test system: C4-2 cells (high-STEAP2 expressing)
Experiment: Internalization and total binding on C4-2 cells (imaging, qualitative score)
Assay type: cell-based, human
Set-up: key: − (no internalization or binding); +(weak internalization or binding); ++(moderate internalization or binding); +++(robust internalization or binding)
Conditions: 10 μg/ml antibody
Measurement name: Total Binding (4° C.) Qualitative Score

H1H11162N: human-Fc anti-STEAP2 antibody, HCVR/LCVR SEQ ID NOs 250/258 (antibody, V domains shown, human Fc) VH: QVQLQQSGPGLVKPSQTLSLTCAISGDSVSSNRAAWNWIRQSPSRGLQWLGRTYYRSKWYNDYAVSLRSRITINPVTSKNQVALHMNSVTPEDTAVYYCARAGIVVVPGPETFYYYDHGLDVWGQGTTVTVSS VL: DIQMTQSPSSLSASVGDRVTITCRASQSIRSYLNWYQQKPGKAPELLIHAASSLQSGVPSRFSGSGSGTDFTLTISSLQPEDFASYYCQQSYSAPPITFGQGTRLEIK: +++
H2M11164N: anti-STEAP2 antibody, mouse IgG2 Fc, HCVR/LCVR SEQ ID NOs 282/290 (antibody, V domains shown, mouse IgG2 Fc) VH: QVQLQQSGPGLVKPSQTLSLTCVISGDSVSTNSAAWNWIRQSPSRGLEWLGRTYYRSKWYNDYAVSVRSRITINPVTSKNQVALHLNSVTPEDTAVYYCARAGIVVVPGPETYYYYYHGLDVWGQGTTVTVSS VL: DIQMTQSPSSLSASVGDRVTITCRASQNIRSYLNWYQQKPGKAPKLLIHVASSLQSGVPSRFSGSGSGTDFTLTISSLQPEDFATYYCQQSYSTPPITFGHGTRLEIK: +++
H1H7972P: anti-STEAP2 antibody, HCVR/LCVR SEQ ID NOs 186/194 (antibody, V domains shown) VH: QVQLQQSGPGLVKPSQTLSLTCAISGDSVSSNSAAWNWIRQSPSRGLEWLGRTYYRSKWYNDYVVSVKSRIIFNPDTSKNQFSLQLNSVTPEDTAVYYCARVRQDYRSGPFDYWGQGTLVTVSS VL: EIVMTQSPVTLSVSPGERATLSCWASQSVSSSLAWYQQKPGQAPRLLIYGASTRATGIPARFSGSGSGTGFTLTISSLQSEDFAVYYCQQYNNWPFTFGPGTKVDIK: +
H2M11162N: anti-STEAP2 antibody, mouse IgG2 Fc, HCVR/LCVR SEQ ID NOs 250/258 (antibody, V domains shown, mouse IgG2 Fc) VH: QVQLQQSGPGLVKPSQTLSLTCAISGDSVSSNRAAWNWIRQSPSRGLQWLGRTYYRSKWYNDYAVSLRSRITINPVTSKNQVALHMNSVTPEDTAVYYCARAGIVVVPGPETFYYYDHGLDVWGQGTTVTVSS VL: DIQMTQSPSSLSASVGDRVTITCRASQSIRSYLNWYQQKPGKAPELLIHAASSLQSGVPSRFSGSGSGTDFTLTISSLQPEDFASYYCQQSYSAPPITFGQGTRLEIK: +++
H1H11880P: anti-STEAP2 antibody, HCVR/LCVR SEQ ID NOs 34/42 (antibody, V domains shown) VH: EVQLVESGGGLVQPGGSLRLSCAASGFTFSTYAMHWVRQAPGKGLQHVSTISTNGVNTYYADSVKGRFTISRDNSKSTLYLQMGSLRAEDMAVYYCARDKDFWSGYFDYWGQGTLVTVSS VL: EIVMTQSPGTLSVSPGERATLSCRASQSVSSNLAWYHQKPGQAPRLLIYGASTRATGFPARFSGSGSGTEFTLTISSLQSEDFAAYYCQQYNNWPITFGQGTRLEIK: +
H1H7814N: human-Fc anti-STEAP2 antibody, HCVR/LCVR SEQ ID NOs 218/226 (antibody, V domains shown, human Fc) VH: QVQLVESGGGVVQPGRSLRLSCVASGFTISSYGMNWVRQAPGKGLEWVAVISYDGGNKYSVDSVKGRFTISRDNSKNTLYLQMNSLRAEDSAVYYCARGRYFDLWGRGTLVTVSS VL: DIQMTQSPSTLSASVGDRVTITCRASQSISSWLAWYQQKPGRAPNLLISKASSLKSGVPSRFSGSGSGTEFTLTVSSLQPDDFATYYCQQYYSYSYTFGQGTKLEIK: +

Requested read-out: Total Binding (4° C.) Qualitative Score. Entry: H1H11164N: human-Fc anti-STEAP2 antibody, HCVR/LCVR SEQ ID NOs 282/290 (antibody, V domains shown, human Fc) VH: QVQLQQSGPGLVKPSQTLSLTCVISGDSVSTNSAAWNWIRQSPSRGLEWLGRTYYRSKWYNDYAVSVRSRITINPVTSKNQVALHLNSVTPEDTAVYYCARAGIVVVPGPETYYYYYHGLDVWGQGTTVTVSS VL: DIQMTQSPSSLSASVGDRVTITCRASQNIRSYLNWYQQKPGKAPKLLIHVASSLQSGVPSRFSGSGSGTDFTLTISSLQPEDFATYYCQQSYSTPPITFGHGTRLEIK
+++
